experimentSummary: self-splicing fitness, log relative to wild type (ln ratio); higher = more splicing; Tetrahymena group I intron in knt gene, E. coli kanamycin selection, DiMSum; sequences stand for … in CUCUCU…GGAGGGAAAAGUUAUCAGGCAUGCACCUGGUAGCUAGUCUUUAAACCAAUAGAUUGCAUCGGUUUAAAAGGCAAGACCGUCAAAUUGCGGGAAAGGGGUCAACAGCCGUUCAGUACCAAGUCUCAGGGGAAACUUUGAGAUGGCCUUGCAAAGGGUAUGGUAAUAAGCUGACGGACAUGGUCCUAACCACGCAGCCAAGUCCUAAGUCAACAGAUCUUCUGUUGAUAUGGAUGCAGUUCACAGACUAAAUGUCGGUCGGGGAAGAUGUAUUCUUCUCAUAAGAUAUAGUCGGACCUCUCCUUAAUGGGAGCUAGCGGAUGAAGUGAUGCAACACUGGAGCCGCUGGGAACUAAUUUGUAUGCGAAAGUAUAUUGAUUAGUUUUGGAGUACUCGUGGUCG;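 note: selection with 25 µg/mL kanamycin versus none on LB agar overnight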
conditionLabel: 37 °C
measureName: self-splicing fitness (ln)
The response must contain the number and no unit.

Worked examples, 3 sequences total:
- GCCAAGCAAUAUUACGCCUG: -1.13
- AUUUAGCAAUAUUACGGUUC: -3.23
- CUUCAGCAAUAUUACGGCUA: -2.06

[in] Name the recorded self-splicing fitness (ln) for GUGUAGCAAUAUUACGUGAU .
[out] 0.0886

[in] Which value of self-splicing fitness (ln) has been reported for AAGUAGCAAUAUUACGGACA in the records?
[out] -0.343

Values were extracted from the supplement of paper PMC7877785.
